# system: PARP2 (Homo sapiens (Human), UniProt Q9UGN5)
# Sequence (Q9UGN5 whole entry): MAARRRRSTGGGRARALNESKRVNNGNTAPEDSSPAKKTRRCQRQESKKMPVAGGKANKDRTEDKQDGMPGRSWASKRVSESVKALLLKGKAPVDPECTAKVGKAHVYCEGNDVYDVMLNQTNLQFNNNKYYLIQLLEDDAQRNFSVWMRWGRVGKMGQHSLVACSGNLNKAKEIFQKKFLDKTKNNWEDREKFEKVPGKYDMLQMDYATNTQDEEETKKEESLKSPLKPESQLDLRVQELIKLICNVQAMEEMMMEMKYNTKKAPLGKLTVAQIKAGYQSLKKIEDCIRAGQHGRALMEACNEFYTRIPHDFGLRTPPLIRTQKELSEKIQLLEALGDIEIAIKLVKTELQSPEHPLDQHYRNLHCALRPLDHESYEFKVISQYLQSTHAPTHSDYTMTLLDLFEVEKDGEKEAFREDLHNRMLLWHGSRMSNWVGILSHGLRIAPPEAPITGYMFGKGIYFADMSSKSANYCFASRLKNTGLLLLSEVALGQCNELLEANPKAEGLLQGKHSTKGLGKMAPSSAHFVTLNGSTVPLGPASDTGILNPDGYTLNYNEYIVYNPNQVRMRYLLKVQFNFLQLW
pIC50: −log10 of the molar value.
recorded-endpoint: pIC50

compound=O=C(CCCc1nc2ccccc2c(=O)[nH]1)N1CCC(c2nnc(-c3ccncc3)o2)CC1 system="PARP2 (Homo sapiens (Human), UniProt Q9UGN5)" obs_value=5.95
compound="O=C(CCCc1nc2ccccc2c(=O)[nH]1)N[C@H]1CC[C@H](c2nnc(-c3ccc(F)c(Cl)c3)o2)CC1 [Example 35, 2,2,2-trifluoroacetate]" system="PARP2 (Homo sapiens (Human), UniProt Q9UGN5)" obs_value=6.03
compound="O=C(CCCc1nc2ccccc2c(=O)[nH]1)N[C@H]1CC[C@H](c2nnc(-c3cccc(Cl)c3)o2)CC1 [Example 36, 2,2,2-trifluoroacetate]" system="PARP2 (Homo sapiens (Human), UniProt Q9UGN5)" obs_value=6.15
compound=O=C(CCCc1nc2ccccc2c(=O)[nH]1)N1CCC(c2nnc(-c3ccccc3)o2)CC1 system="PARP2 (Homo sapiens (Human), UniProt Q9UGN5)" obs_value=6.08
compound=Cn1c(=O)n(C2CCN(C(=O)CCCc3nc4ccccc4c(=O)[nH]3)CC2)c2ccc(Cl)cc21 system="PARP2 (Homo sapiens (Human), UniProt Q9UGN5)" obs_value=5.99
